# Test system: P. falciparum CQ-sensitive strain 3D7
# method: In vitro antiplasmodial activity, SYBR Green I fluorescence-based method, 3D7 strain
# Assay type: cell-based, Plasmodium falciparum
# studyConditions: Plasmodium falciparum, 3D7, 48 h, chloroquine-sensitive strain 3D7, 48 h incubation; read-out: P. falciparum strains IC50 values, 3D7
Please go through the items and note down their pIC50.
Numbers only, as −log10 of the molar value.

| compound | pIC50 |
| --- | --- |
| COc1ccc2nc(-c3cccc(CNCCCN(CCCNCc4cccc(-c5nc6ccc(OC)cc6n6cccc56)c4)CCCNCc4cccc(-c5nc6ccc(OC)cc6n6cccc56)c4)c3)c3cccn3c2c1 [1t] | 6.62 |
| COc1ccc2nc(-c3cccc(CNCCCN(C)CCCNCc4cccc(-c5nc6ccc(OC)cc6n6cccc56)c4)c3)c3cccn3c2c1 [1o] | 6.74 |

We now examine a further compound.
Input: Let me know recorded pIC50 for c1ccc(-c2nc3ccccc3n3cc(CNCCCN4CCN(CCCNCc5cc6c(-c7ccccc7)nc7ccccc7n6c5)CC4)cc23)cc1 [1r] , thanks.
Output: 5.14
